# System: RAW-Dual (murine macrophage reporter line)
# ASSAY_COMMENT: NF-kB reporter (SEAP) activity fold change vs agonist alone; higher = enhanced NF-kB activity
# EXPERIMENTAL_PARAMETERS: modulator concentration 10 µM; agonist: CpG ODN 1826 0.5 ug/mL

{"COMPOUND": "COC(=O)C1C(O)CCC2CN3CCc4c([nH]c5ccccc45)C3CC21.Cl (stereo not given)", "TESTED_SYSTEM": "RAW-Dual (murine macrophage reporter line)", "NF-kB reporter": 1.19}
{"COMPOUND": "COC(=O)C1=CN(CC2CCCO2)C=C(C(=O)OC)C1c1ccccc1Cl (stereo not given)", "TESTED_SYSTEM": "RAW-Dual (murine macrophage reporter line)", "NF-kB reporter": 1.67}
{"COMPOUND": "Cc1cc(C(=O)N2CCC(Oc3cccc4cccnc34)CC2)c(C)o1", "TESTED_SYSTEM": "RAW-Dual (murine macrophage reporter line)", "NF-kB reporter": 1.1}
{"COMPOUND": "O=C(Nc1ncc(S(=O)(=O)c2ccc([N+](=O)[O-])cc2)s1)c1cccs1", "TESTED_SYSTEM": "RAW-Dual (murine macrophage reporter line)", "NF-kB reporter": 1.06}
{"COMPOUND": "Cc1ccc(S(=O)(=O)Nc2c3ccccc3c(O)c3c4c(oc23)CC(C)(C)CC4=O)cc1", "TESTED_SYSTEM": "RAW-Dual (murine macrophage reporter line)", "NF-kB reporter": 0.938}
{"COMPOUND": "CN(C)c1ccc(O)c2c1C[C@H]1C[C@H]3[C@H](N(C)C)C(O)=C(C(N)=O)C(=O)[C@@]3(O)C(O)=C1C2=O.Cl", "TESTED_SYSTEM": "RAW-Dual (murine macrophage reporter line)", "NF-kB reporter": 0.96}
{"COMPOUND": "CC(C)C(=O)N1CCCc2ccc(NC(=O)COc3ccc4ccccc4c3)cc21", "TESTED_SYSTEM": "RAW-Dual (murine macrophage reporter line)", "NF-kB reporter": 0.867}
{"COMPOUND": "CCOC(=O)c1ccc(N)cc1.Cl", "TESTED_SYSTEM": "RAW-Dual (murine macrophage reporter line)", "NF-kB reporter": 0.872}
{"COMPOUND": "COc1nn(C)cc1C(=O)Nc1ccc(C(=O)NCCN2CCOCC2)cc1", "TESTED_SYSTEM": "RAW-Dual (murine macrophage reporter line)", "NF-kB reporter": 1.02}
{"COMPOUND": "Cc1cc(=O)n(-c2ccccc2)n1C", "TESTED_SYSTEM": "RAW-Dual (murine macrophage reporter line)", "NF-kB reporter": 0.98}
